Origin of values: paper PMC8684776

Assignment: determine reported IC50 for the given compounds.
Target: And‐1 (Homo sapiens)
Construct: expressed in transfected cells
Sequence (O75717 whole entry): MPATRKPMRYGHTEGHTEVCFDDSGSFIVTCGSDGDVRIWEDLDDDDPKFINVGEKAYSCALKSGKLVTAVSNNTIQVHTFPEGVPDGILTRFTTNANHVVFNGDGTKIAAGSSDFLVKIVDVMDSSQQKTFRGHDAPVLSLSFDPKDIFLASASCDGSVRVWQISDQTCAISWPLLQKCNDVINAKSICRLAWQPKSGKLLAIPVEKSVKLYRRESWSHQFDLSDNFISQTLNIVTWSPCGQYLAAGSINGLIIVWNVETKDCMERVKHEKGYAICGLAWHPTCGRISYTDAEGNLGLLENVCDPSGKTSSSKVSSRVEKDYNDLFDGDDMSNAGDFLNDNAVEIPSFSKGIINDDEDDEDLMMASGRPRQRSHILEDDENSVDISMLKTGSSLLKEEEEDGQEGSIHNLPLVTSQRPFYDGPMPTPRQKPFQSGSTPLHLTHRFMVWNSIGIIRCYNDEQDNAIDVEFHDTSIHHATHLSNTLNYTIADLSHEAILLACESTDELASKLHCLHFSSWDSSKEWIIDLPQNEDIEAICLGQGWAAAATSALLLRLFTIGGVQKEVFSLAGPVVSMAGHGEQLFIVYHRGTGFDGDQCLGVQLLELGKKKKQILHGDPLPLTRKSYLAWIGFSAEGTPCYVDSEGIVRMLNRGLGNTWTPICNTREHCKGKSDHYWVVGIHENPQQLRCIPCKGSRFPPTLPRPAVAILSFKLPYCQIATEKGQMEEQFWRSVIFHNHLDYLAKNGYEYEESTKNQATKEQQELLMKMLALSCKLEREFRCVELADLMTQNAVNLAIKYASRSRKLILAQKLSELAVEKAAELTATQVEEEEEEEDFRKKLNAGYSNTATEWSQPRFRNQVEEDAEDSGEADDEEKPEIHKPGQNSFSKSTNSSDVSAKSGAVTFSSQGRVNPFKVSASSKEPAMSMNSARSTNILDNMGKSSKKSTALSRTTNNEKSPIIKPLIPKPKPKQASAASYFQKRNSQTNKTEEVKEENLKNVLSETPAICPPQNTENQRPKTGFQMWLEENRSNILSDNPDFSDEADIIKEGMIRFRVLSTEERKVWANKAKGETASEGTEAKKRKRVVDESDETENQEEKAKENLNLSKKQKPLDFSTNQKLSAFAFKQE
Experiment: And‐1 luciferase reporter assay (qHTS of LOPAC)
Format: cell-based
Conditions: reduction of luciferase activity, qHTS; column 1; read-out: IC50 (uM) 1
Counter-ions that a name gives are not always drawn.
Your answer should be a plain number; it is taken to be in µM.

Consider the compound CC[n+]1c(/C=C/C=C2/N(C)c3ccccc3C2(C)C)sc2ccccc21 [AC-93253 iodide] and give its recorded IC50.
1.09

Consider the compound CCN(CC)CCOc1ccc(Nc2ncc3cc(-c4c(Cl)cccc4Cl)c(=O)n(C)c3n2)cc1 [PD-166285 hydrate] and give its recorded IC50.
3.33

Consider the compound CC[C@@]1(O)C(=O)OCc2c1cc1n(c2=O)Cc2cc3ccccc3nc2-1 [(S)-(+)-Camptothecin] and give its recorded IC50.
0.73

Consider the compound CC[C@@]1(O)C(=O)OCc2c1cc1n(c2=O)Cc2cc3c(CN(C)C)c(O)ccc3nc2-1 [Topotecan hydrochloride hydrate] and give its recorded IC50.
0.61

Consider the compound C=CCc1cccc(/C=N/NC(=O)CN2CCN(Cc3ccccc3)CC2)c1O and give its recorded IC50.
18.8

Consider the compound O=C1C(SCCO)=C(SCCO)C(=O)c2ccccc21 and give its recorded IC50.
11.2
